Measured Anti-CD28 Fab signal, listed per entry.
target: T1, Anti-CD28 Fab (SEQ ID NOs: 202, 203); assay: phage ELISA on captured biotinylated Fab;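 note: wells preblocked with or without CD28 antigen, then clonal phage supernatant added briefly, washed, and bound phage read out by ELISA using HRP-linked anti-M13 antibody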
T1 construct: biotinylated and captured on neutravidin coated plates in the phage ELISA
T1 sequence (VH, as listed by the source, chain 1 of 2): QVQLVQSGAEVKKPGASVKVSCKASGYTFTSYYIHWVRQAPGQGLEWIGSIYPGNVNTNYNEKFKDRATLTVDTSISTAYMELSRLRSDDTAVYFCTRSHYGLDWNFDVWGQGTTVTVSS
T1 sequence (VL, as listed by the source, chain 2 of 2): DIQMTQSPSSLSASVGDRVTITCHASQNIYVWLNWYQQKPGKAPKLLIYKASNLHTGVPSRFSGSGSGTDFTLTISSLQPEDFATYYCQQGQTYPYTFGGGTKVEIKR
Value type: Anti-CD28 Fab signal

>>> val("YCDGHAPEYMEKCL [Phage-254]")
2.01
>>> val("YCEGHSPQYMSKCL [Phage-241]")
2.04
>>> val("YCDGHEAQYMSKCL [Phage-256]")
2.01
>>> val("YCEGHSIQYMAKCL [Phage-252]")
2.02
>>> val("YCDGHLKEYQEKCL [Phage-299]")
1.91
>>> val("YCAGHLPEHIGKCL [Phage-207]")
2.09
>>> val("YCEGHAEEYMQKCL [Phage-163]")
2.18
>>> val("YCDGHSAEYMWKCL [Phage-179]")
2.15
>>> val("YCEGHADIYMQKCL [Phage-225]")
2.06
>>> val("YCAGHSVEYMAKCL [Phage-275]")
1.96
>>> val("YCEGHSPEYMTKCL [Phage-251]")
2.02
>>> val("YCDGHSSEYMWKCL [Phage-244]")
2.03
>>> val("YCEGHSAEYMWKCL [Phage-213]")
2.08
>>> val("YCEGHAPQYIQKCL [Phage-220]")
2.07
>>> val("YCDGHVAEYMAKCL [Phage-177]")
2.16
>>> val("YCEGHAPQHMDKCL [Phage-240]")
2.04
>>> val("YCDGHKAEYMDKCL [Phage-150]")
2.2
>>> val("YCAGHLEIYMQKCL [Phage-211]")
2.09
>>> val("YCDGHELRYMAKCL [Phage-221]")
2.07
>>> val("YCDGHAQEFMSKCL [Phage-218]")
2.07
>>> val("YCEGHLPQYIPKCL [Phage-193]")
2.12
>>> val("YCAGHLPLYMEKCL [Phage-191]")
2.12
>>> val("YCDGHSLEYMAKCL [Phage-180]")
2.15
>>> val("YCDGHLPEYLGKCL [Phage-274]")
1.96
>>> val("YCEGHSDEYMLKCL [Phage-223]")
2.06
>>> val("YCDGHSAQYMHKCL [Phage-234]")
2.05
>>> val("YCEGHLSQYMEKCL [Phage-281]")
1.95
>>> val("YCSGHAPEYMAKCL [Phage-287]")
1.94
>>> val("YCDGHTQEYIAKCL [Phage-167]")
2.17
>>> val("YCDGHSPMYIGKCL [Phage-247]")
2.03
>>> val("YCQGHLPQYIAKCL [Phage-205]")
2.09

The origin of these recorded values is patent US20260274955A1.
